biological target: Cyclin-dependent kinase 1/cyclin B (Homo sapiens, UniProt P06493); experiment: Inhibition of Cyclin B-cyclin-dependent kinase 1
pIC50: −log10 of the molar value.
Readout kind: pIC50

INSERT INTO results (structure_notation, number) VALUES
  ('Cc1ccc(F)c(C(=O)n2nc(N)nc2Nc2ccc(S(N)(=O)=O)cc2)c1F', 5.68);

1 = N[n+]1nc(Nc2ccc(S(N)(=O)=O)cc2)nn1S(=O)(=O)c1c(F)cccc1F
2 = CN(C)CCNS(=O)(=O)c1ccc(Nc2nc(N)n(C(=O)c3c(F)cccc3F)n2)cc1
3 = Cc1nc(Nc2ccc(S(N)(=O)=O)cc2)nn1C(=O)c1c(F)ccc(F)c1F
### Prompt Hello, I need these entries ordered by pIC50, highest reading first. Thanks! Respond with the label ranking, as requested.
### Response 3, 2, 1

----------
assay: Maximum plasma concentration after intravenous administration of 3 mg/kg in nude mice; type: ADME, organism-based; design: dose 3 mg/kg, route intravenous; conditions: mouse
Measured Cmax accompanies every entry in the list below.
// units = µM; emit number, no label

INSERT INTO measurements (compound, number) VALUES
  ('Cc1ccc(F)c(C(=O)n2nc(Nc3ccc(S(N)(=O)=O)cc3)nc2C)c1F', 0.33);

Here is the next item to consider.
Quick note, Cmax for Nc1nc(Nc2ccc(S(N)(=O)=O)cc2)nn1C(=O)c1c(F)cccc1F [JNJ-7706621] landed at 6.4

----------
test: Maximum plasma concentration after oral administration of 10 mg/kg in dog; assay type: ADME, organism-based, Canis lupus familiaris; design: dose 10 mg/kg, route oral
Readout kind: Cmax (µM)
// units = µM; emit number, no label

Quick note, Cmax for Nc1nc(Nc2ccc(S(N)(=O)=O)cc2)nn1C(=O)c1c(F)cccc1F landed at 4.58

----------
test: Maximum plasma concentration after intravenous administration of 1 mg/kg in dog; assay type: ADME, organism-based, Canis lupus familiaris; design: dose 1 mg/kg, route intravenous
Readout kind: Cmax (nM)
// units = nM; emit number, no label

Quick note, Cmax for Nc1nc(Nc2ccc(S(N)(=O)=O)cc2)nn1C(=O)c1c(F)cccc1F [JNJ-7706621] landed at 2190

----------
test system: HCT-116; assay: In vitro inhibitory concentration against cell proliferation in human HCT116 (colon carcinoma) tumor cells; assay type: functional, cell-based
Readout kind: IC50 (nM)

P = Nc1nc(Nc2ccc(S(N)(=O)=O)cc2)nn1C(=O)c1cccs1
Q = Nc1nc(Nc2ccc(S(N)(=O)=O)cc2)n(C(=S)c2c(F)cccc2F)n1
### Prompt Please choose the item with the lower IC50 value from this pair: P and Q // output: label of the selected item
### Response Q

----------
assay: Half life after intravenous administration of 1 mg/kg; assay type: ADME, organism-based, Canis lupus familiaris; set-up: dose 1 mg/kg, route intravenous; conditions: dog, in vivo
Readout kind: half-life (h)
// units = h; emit number, no label

Quick note, half-life for Nc1nc(Nc2ccc(S(N)(=O)=O)cc2)nn1C(=O)c1c(F)cccc1F landed at 3.89

----------
experiment: Inhibition of Protein kinase-C alpha/gamma
Readout kind: IC50

Study these solved cases before continuing.
INSERT INTO results (structure_notation, result) VALUES
  ('Cc1ccc(F)c(C(=O)n2nc(Nc3ccc(S(N)(=O)=O)cc3)nc2C)c1F', '> 100 µM'),
  ('Cc1ccsc1C(=O)n1nc(Nc2ccc(S(N)(=O)=O)cc2)nc1N', '> 100 µM');

Here is the next item to consider.
Quick note, IC50 for Nc1nc(Nc2ccc(S(N)(=O)=O)cc2)nn1C(=O)c1c(F)cccc1F landed at 30.1 µM

----------
test: Half life after oral administration of 10 mg/kg; type: ADME, organism-based, Canis lupus familiaris; set-up: dose 10 mg/kg, route oral; settings: dog, in vivo
Readout kind: half-life (h)
// units = h; emit number, no label

Quick note, half-life for Nc1nc(Nc2ccc(S(N)(=O)=O)cc2)nn1C(=O)c1c(F)cccc1F [JNJ-7706621] landed at 2.36

----------
experiment: Area under concentration time curve after 3 mg/kg […] in nude mice; type: ADME, organism-based; set-up: dose 3 mg/kg; conditions: mouse, in vivo
Readout kind: AUC (µM·h)
// units = µM·h; emit number, no label

INSERT INTO assay_data (compound, unit, number) VALUES
  ('Nc1nc(Nc2ccc(S(N)(=O)=O)cc2)nn1C(=O)c1c(F)cccc1F [JNJ-7706621]', 'µM·h', 3.2);

Here is the next item to consider.
Quick note, AUC for Cc1ccc(F)c(C(=O)n2nc(Nc3ccc(S(N)(=O)=O)cc3)nc2C)c1F landed at 0.27

----------
system: HCT-116; test: In vitro inhibitory concentration against cell proliferation in human HCT116 (colon carcinoma) tumor cells; assay type: functional, cell-based
pIC50: −log10 of the molar value.
Readout kind: pIC50

Study these solved cases before continuing.
INSERT INTO results (structure_notation, readout_kind, number) VALUES
  ('Cc1ccc(F)c(C(=O)n2nc(N)nc2Nc2ccc(S(N)(=O)=O)cc2)c1F', 'pIC50', 5.39),
  ('Cc1ccsc1C(=O)n1nc(Nc2ccc(S(N)(=O)=O)cc2)nc1N', 'pIC50', 6.89),
  ('Nc1nc(Nc2ccc(S(N)(=O)=O)cc2)nn1C(=S)Nc1c(F)cccc1F', 'pIC50', 7.70);

1 = Nc1nc(Nc2ccc(S(N)(=O)=O)cc2)nn1C(=O)c1sccc1F
2 = Cc1ccc(F)c(C(=O)n2nc(Nc3ccc(S(N)(=O)=O)cc3)nc2C)c1F
### Prompt Please choose the item with the lower pIC50 value from this pair: 1 and 2 // output: label of the selected item
### Response 2

----------
molecular target: Vascular endothelial growth factor receptor 2 (Homo sapiens, UniProt P35968)
Sequence (P35968 whole entry): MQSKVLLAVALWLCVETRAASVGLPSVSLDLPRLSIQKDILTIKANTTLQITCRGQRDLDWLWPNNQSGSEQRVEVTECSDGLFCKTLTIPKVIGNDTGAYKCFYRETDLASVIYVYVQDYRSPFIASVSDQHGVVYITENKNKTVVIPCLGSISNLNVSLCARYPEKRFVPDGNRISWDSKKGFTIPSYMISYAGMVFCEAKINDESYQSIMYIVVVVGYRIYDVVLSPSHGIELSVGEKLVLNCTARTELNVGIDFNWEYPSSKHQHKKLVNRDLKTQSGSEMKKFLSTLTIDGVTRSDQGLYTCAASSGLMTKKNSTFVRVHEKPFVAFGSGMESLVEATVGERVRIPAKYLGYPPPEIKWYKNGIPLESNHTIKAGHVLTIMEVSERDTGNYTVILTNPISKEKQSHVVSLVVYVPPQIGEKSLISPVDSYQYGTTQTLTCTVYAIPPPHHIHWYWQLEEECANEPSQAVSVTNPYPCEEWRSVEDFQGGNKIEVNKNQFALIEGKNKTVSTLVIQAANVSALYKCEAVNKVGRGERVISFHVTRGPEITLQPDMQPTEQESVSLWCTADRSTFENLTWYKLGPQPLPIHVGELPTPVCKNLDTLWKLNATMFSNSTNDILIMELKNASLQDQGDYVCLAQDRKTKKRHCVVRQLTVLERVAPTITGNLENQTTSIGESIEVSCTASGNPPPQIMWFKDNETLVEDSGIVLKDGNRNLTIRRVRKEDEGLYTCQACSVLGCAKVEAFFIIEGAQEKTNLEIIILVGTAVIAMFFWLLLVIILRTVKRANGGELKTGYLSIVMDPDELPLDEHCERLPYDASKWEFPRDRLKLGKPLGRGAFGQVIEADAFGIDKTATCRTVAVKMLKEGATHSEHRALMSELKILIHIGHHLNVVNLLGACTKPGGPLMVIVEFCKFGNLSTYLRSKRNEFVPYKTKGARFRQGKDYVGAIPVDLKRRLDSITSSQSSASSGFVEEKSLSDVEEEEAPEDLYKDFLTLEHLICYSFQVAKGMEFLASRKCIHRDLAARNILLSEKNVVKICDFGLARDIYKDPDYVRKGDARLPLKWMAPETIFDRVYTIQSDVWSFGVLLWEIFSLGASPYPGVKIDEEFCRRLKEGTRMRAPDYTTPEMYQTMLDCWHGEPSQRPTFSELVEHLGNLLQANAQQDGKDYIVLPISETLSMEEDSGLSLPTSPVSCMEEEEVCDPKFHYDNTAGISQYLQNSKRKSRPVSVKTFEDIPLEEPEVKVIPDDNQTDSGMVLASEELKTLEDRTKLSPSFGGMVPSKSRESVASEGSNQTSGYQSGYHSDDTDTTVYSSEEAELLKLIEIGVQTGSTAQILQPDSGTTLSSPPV
Readout kind: pIC50
Bear in mind: pIC50 is minus log10 of a mol/L concentration; give just that figure.

For Cc1ccc(F)c(C(=O)n2nc(Nc3ccc(S(N)(=O)=O)cc3)nc2C)c1F on Vascular endothelial growth factor receptor 2 (Homo sapiens, UniProt P35968), measured pIC50 was 6.29

----------
test system: SK-OV-3; experiment: In vitro inhibitory concentration against cell proliferation in human SK-OV-3 (ovarian adenocarcinoma) tumor cells; assay type: functional, cell-based
Readout kind: IC50 (nM)

INSERT INTO assay_data (compound, number) VALUES
  ('Nc1nc(Nc2ccc(S(N)(=O)=O)cc2)nn1C(=O)c1cccs1', 730);

I = Nc1nc(Nc2ccc(S(N)(=O)=O)cc2)nn1C(=O)c1sccc1F
II = Cc1ccc(F)c(C(=O)n2nc(Nc3ccc(S(N)(=O)=O)cc3)nc2C)c1F
### Prompt Which of the two gives a bigger number for IC50: I or II ? // output: label of the selected item
### Response I

----------
assay: Bioavailability in rat after 30 mg/kg oral dose; assay type: ADME, organism-based; details: in vivo, read-out: Bioavailabiility
Readout kind: bioavailability (%)
// units = %; emit number, no label

Quick note, bioavailability for Nc1nc(Nc2ccc(S(N)(=O)=O)cc2)nn1C(=O)c1c(F)cccc1F landed at 8

----------
molecular target: Cyclin-dependent kinase 4/cyclin D1 (Homo sapiens, UniProt P11802); experiment: Inhibition of Cyclin-dependent kinase 4-cyclin D1
Sequence (P11802 whole entry): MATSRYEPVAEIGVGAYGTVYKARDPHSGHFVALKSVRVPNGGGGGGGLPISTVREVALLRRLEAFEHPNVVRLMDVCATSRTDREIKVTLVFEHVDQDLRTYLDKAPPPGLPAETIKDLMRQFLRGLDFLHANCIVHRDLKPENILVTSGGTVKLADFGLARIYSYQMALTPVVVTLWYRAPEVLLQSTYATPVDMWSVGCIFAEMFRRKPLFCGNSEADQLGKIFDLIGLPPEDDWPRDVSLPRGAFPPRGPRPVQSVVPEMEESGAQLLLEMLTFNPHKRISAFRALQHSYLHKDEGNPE
Sequence (P24385 whole entry, further chain): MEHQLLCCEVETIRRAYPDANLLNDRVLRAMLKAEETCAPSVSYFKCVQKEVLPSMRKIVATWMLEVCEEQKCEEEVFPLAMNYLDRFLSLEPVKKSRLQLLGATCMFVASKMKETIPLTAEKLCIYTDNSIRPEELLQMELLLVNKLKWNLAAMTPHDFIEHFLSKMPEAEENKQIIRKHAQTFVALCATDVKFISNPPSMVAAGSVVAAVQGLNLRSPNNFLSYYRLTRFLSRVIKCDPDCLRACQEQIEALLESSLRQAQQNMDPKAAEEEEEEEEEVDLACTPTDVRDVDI
Measured pIC50 accompanies every entry in the list below.
Bear in mind: pIC50 is minus log10 of a mol/L concentration; give just that figure.

INSERT INTO measurements (structure_notation, number) VALUES
  ('Cc1ccsc1C(=O)n1nc(Nc2ccc(S(N)(=O)=O)cc2)nc1N', 6.92);

Quick note, pIC50 for Cc1ccc(F)c(C(=O)n2nc(Nc3ccc(S(N)(=O)=O)cc3)nc2C)c1F landed at 6.72

----------
assay: Bioavailability in dog after 10 mg/kg oral dose; format: ADME, organism-based, Canis lupus familiaris; settings: in vivo, read-out: Bioavailabiility
Readout kind: bioavailability (%)
// units = %; emit number, no label

Quick note, bioavailability for Nc1nc(Nc2ccc(S(N)(=O)=O)cc2)nn1C(=O)c1c(F)cccc1F [JNJ-7706621] landed at 63.3

----------
experiment: Maximum plasma concentration after intravenous administration of 3 mg/kg in rat; assay type: ADME, organism-based; design: dose 3 mg/kg, route intravenous
Readout kind: Cmax (µM)
// units = µM; emit number, no label

Quick note, Cmax for Nc1nc(Nc2ccc(S(N)(=O)=O)cc2)nn1C(=O)c1c(F)cccc1F [JNJ-7706621] landed at 23.2
